tested on: Saccharomyces cerevisiae; test: protein stability index of tFT-peptide fusion (C-terminal peptide) (PSI (0-1 scale)); higher = more stable (slower turnover); details: genetic background: wild type; temperature: 30 C;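 also: PSI is a weighted mean of sequencing reads over stability bins, variants kept only with over 10 reads, mCherry proximal and sfGFP distal, peptide attached via GGGS linker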
Criterion: protein stability index meeting or surpassing 0.7. Met: Condition met. Not met: Condition not met.

sequenceEntry | assignedLabel
PALTSSGPPPLV | Condition met
LVCLLFTNKVMH | Condition not met
WCAGCLGWWLQS | Condition not met
GDIILSFFNFSK | Condition not met

Assess whether reported protein stability index for ETQEAKGGMTRQ sits at 0.7 or higher.
Condition not met

Follow-up entry: PPLPPPLLPFSI
Condition met

* * *

system: Saccharomyces cerevisiae; experiment: protein stability index of tFT-peptide fusion (C-terminal peptide) (PSI (0-1 scale)); higher = more stable (slower turnover); settings: genetic background: cdc53-1; temperature: 37 C
quantityKind: protein stability index
// return a plain number; no unit text

Examples with their reported protein stability index follow.
sequenceEntry | quantityKind | numericValue
YYFFLTFLCYVF | protein stability index | 0.216
LCSYSTIPLRLY | protein stability index | 0.726
SLFSPPVLATPS | protein stability index | 0.709

I'd like to know its protein stability index. The sequence in question is FPFFVFRVWFGA
0.535

Follow-up entry: LVCLVFVRSSLV
0.571

Follow-up entry: SSVCLYWCCLFV
0.602

Follow-up entry: YVQTKKTRYVLV
0.506

Follow-up entry: SNFFPVPLLLFR
0.117

Follow-up entry: PFLSLPFLFPSS
0.769

Follow-up entry: LPVPARPFPPSS
0.713

Follow-up entry: LEYCLATYLSAC
0.435

Follow-up entry: FGARCSLSPLVT
0.753

Follow-up entry: LVCLPVGFFLMW
0.638

Follow-up entry: FLSLPLFILFLS
0.232

Follow-up entry: GLFVGCWVFLVL
0.445

Follow-up entry: RSLSFGMVLCYS
0.366

Follow-up entry: PRFLRWLFSLLI
0.704

Follow-up entry: KLLGVLFVLFPG
0.599

Follow-up entry: RALSLPPLLLVL
0.443
